reported.endpoint: IC50 (µM)
Use µM as the unit, but write only the number.

IC50 of Cc1cccc2c3c(ccc12)C1=C(C(=O)C3=O)[C@@H](C)CO1 [dihydrotanshinone I] , assay on CYP3A2 (Rattus norvegicus, UniProt P05183), is 13.8

* * *

# target.system: CYP2J3 (Rattus norvegicus, UniProt P51590)
# Sequence (P51590 whole entry): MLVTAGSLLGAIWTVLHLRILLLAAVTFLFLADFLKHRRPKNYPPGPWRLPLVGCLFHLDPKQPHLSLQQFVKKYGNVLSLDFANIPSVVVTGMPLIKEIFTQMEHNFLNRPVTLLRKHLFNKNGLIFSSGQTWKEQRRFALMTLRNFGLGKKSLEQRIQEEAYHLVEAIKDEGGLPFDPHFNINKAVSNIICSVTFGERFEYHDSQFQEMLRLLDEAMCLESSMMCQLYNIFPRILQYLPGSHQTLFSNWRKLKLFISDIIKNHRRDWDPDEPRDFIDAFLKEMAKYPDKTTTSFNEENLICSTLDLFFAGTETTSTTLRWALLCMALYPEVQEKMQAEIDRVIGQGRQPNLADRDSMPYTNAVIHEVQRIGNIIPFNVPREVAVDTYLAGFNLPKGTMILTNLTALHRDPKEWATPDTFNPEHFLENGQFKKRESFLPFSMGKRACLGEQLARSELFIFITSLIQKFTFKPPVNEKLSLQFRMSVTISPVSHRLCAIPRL
reported.endpoint: pIC50
Remember the convention: pIC50 equals -log10 of concentration in molar.

The recorded pIC50 for Cc1cccc2c3c(ccc12)C1=C(C(=O)C3=O)[C@@H](C)CO1 [dihydrotanshinone I] is 5.19
